# tested on: NEK2 (human)
# assay info: KINOMEscan competition binding
# condition label: compound 10.0 µM
Field 'label' (enum: Condition met / Condition not met). Set to Condition met when kinase still bound, per cent of control is strictly under 30%; else Condition not met.

CN1C(=O)[C@H]2CCC[C@H]2N(C2CCCC2)c2nc(Nc3ccc4ncccc4c3)ncc21 :: Condition not met
CSC1=NC(=O)/C(=C/c2c[nH]c(=O)c(-c3ccc(NS(C)(=O)=O)cc3)c2)S1 :: Condition met
COc1cc(N2CCC(O)CC2)ccc1Nc1ncc2c(n1)N1CCc3cccc(c31)C(=O)N2C :: Condition not met
CS(=O)(=O)Nc1ccc(-c2cc(/C=C3\SC(=N)NC3=O)c[nH]c2=O)cc1 :: Condition met

In the following, a different compound is considered.
IN: kinase still bound, per cent of control under 30%? Item: `CN1C(=O)[C@H]2CCC[C@H]2N(C2CCCC2)c2nc(Nc3ccc(C(N)=O)cc3)ncc21`
OUT: Condition met

* * *

# tested on: DCLK1 (human)
# assay info: KINOMEscan competition binding
# condition label: compound 10.0 µM
# thresholds on kinase still bound, per cent of control define classes: bucket A = under 1%, bucket B = from 1% up to 10%, bucket C = 10% and over

CN1C(=O)c2ccccc2N(C)c2nc(Nc3ccc(N4CCC(O)CC4)cn3)ncc21 :: bucket A
O=C1NC(=O)/C(=C/c2c[nH]c(=O)c(-c3ccc(N4CCNCC4)nc3)c2)S1 :: bucket C
COc1cc(N2CCC(C(N)=O)CC2)ccc1Nc1ncc2c(n1)N(C1CCCC1)[C@@H]1CCC[C@@H]1C(=O)N2C :: bucket C
COc1cc(N2CCN(C)CC2)ccc1Nc1ncc2c(n1)N(C1CCCC1)C(C)CC(=O)N2C (stereo not given) :: bucket B

IN: Form: Item = COc1cc(C(=O)NC2CCN(C)CC2)ccc1Nc1ncc2c(n1)N(C1CCCC1)CC(C)C(=O)N2C (stereo not given) ; Class = ?
OUT: bucket B

* * *

# tested on: MAP2K4 (human) (UniProt P45985)
# Sequence (P45985 whole entry, looked up): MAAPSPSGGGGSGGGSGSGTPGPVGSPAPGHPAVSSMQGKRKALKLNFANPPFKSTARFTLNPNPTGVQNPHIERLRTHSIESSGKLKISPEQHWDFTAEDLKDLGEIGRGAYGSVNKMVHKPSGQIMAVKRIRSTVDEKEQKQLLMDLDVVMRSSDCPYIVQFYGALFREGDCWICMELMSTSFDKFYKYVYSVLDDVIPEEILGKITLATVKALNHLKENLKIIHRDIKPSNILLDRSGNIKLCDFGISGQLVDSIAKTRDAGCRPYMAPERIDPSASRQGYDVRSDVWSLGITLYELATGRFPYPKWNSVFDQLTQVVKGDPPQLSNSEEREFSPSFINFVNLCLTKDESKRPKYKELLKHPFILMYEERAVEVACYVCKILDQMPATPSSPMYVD
# assay info: KINOMEscan competition binding
# condition label: compound 10.0 µM
readout label: kinase still bound, per cent of control (%)
Hi! Could you send only the number? It should be in %, unit omitted.

# count of solved cases: 6
COc1cc(N2CCC(O)CC2)ccc1Nc1ncc2c(n1)N1CCc3cccc(c31)C(=O)N2C :: 82
N=C1NC(=O)/C(=C/c2ccc(-c3ccccc3O)o2)S1 :: 16
COc1cc(N2CCN(C)CC2)ccc1Nc1ncc2c(n1)N(C)c1sccc1C(=O)N2C :: 71
CN1C(=O)c2ccccc2N(C)c2nc(NS(=O)(=O)c3ccc(N)cc3)ncc21 :: 61
COc1cc(N2CCN(C)CC2)ccc1Nc1ncc2c(n1)N(C)c1ccccc1N(C)C2=O :: 98
N=C1NC(=O)/C(=C/c2ccc(-c3cnc4ccccc4c3)o2)S1 :: 33

IN: Look up kinase still bound, per cent of control of `O=C1NC(=O)C(=Cc2ccc(-c3ccc(Cl)cc3)o2)C(=O)N1` and report it.
OUT: 14

IN: Return kinase still bound, per cent of control (reported value) for this compound: `N=C1NC(=O)/C(=C/c2c[nH]c(=O)c(-c3ccc(S(N)(=O)=O)cc3)c2)S1`
OUT: 24

* * *

kinase still bound, per cent of control for assorted compounds
# tested on: PAK7 (human) (UniProt Q9P286)
# Sequence (Q9P286 whole entry, looked up): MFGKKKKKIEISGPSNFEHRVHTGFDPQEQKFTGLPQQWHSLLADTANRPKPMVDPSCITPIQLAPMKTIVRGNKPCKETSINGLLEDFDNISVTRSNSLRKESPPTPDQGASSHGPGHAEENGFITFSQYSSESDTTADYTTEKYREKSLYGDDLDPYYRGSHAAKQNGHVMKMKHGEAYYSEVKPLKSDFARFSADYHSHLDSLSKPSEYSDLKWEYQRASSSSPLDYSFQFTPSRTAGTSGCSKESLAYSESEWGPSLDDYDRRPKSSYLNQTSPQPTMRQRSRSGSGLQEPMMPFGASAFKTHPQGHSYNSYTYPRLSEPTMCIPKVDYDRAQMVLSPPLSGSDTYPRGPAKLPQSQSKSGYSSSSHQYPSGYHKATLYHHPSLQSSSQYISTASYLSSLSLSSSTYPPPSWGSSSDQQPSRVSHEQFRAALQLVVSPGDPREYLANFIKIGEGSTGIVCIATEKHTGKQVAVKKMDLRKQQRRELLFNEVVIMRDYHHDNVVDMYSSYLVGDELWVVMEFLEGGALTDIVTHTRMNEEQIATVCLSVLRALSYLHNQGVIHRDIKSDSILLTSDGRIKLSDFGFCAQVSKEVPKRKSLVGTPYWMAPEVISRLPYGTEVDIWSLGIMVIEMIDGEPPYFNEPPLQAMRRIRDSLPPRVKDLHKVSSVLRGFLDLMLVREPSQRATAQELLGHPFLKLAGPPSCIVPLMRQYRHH
# assay info: KINOMEscan competition binding
# condition label: compound 10.0 µM
Give just the numeric value; % need not be written.

Sample answers from the record:
O=C1NC(=S)S/C1=C\c1ccc(-c2cncc3ccccc23)o1 :: 11
COc1cc(N2CCN(C)CC2)ccc1Nc1ncc2c(n1)N(C)c1sccc1C(=O)N2C :: 71
CN1CCN(c2ccc(C(=O)Nc3ncc4c(n3)N(C)c3ccccc3C(=O)N4C)cc2)CC1 :: 100
COc1cc(N2CCN(C)CC2)ccc1Nc1ncc2c(n1)N(C)c1ccccc1N(C)C2=O :: 79
N=C1NC(=O)/C(=C/c2ccc(-c3cncc4ccccc34)o2)S1 :: 13

IN: Please indicate kinase still bound, per cent of control recorded for `CN1C(=O)c2ccccc2N(C)c2nc(NS(=O)(=O)c3ccc(N)cc3)ncc21`
OUT: 88

IN: In one line, give reported kinase still bound, per cent of control of the entry `O=C1NC(=O)/C(=C/c2c[nH]c(=O)c(-c3ccc(N4CCNCC4)nc3)c2)S1` .
OUT: 65

IN: Return value of kinase still bound, per cent of control for input `COc1cc(N2CCC(O)CC2)ccc1Nc1ncc2c(n1)N1CCc3cccc(c31)C(=O)N2C` , no commentary.
OUT: 64

IN: Tell us which kinase still bound, per cent of control value is on record for `COc1cc(N2CCN(C)CC2)ccc1Nc1ncc2c(n1)Nc1ccccc1NC2=O`
OUT: 78

IN: Tell me measured kinase still bound, per cent of control for `Cc1cn(-c2cc(NC(=O)c3cccc4cc(-c5ccc(/C=C6\SC(=N)NC6=O)o5)ccc34)cc(C(F)(F)F)c2)cn1` please.
OUT: 34

IN: Complete the entry with kinase still bound, per cent of control for `NS(=O)(=O)c1ccc(-c2ccc(/C=C3\SC(=S)N(CC(=O)O)C3=O)o2)cc1`
OUT: 22

IN: For the compound `CN1C(=O)c2ccccc2N(C)c2nc(Nc3ccc(N4CCC(O)CC4)cc3)ncc21` , give its reported kinase still bound, per cent of control.
OUT: 87

IN: For the compound `CSC1=NC(=O)/C(=C/c2ccc(-c3ccc(S(N)(=O)=O)cc3)o2)S1` , report kinase still bound, per cent of control.
OUT: 28
